# test system: ATP-dependent translocase ABCB1 (Homo sapiens)
# Sequence (P08183 whole entry): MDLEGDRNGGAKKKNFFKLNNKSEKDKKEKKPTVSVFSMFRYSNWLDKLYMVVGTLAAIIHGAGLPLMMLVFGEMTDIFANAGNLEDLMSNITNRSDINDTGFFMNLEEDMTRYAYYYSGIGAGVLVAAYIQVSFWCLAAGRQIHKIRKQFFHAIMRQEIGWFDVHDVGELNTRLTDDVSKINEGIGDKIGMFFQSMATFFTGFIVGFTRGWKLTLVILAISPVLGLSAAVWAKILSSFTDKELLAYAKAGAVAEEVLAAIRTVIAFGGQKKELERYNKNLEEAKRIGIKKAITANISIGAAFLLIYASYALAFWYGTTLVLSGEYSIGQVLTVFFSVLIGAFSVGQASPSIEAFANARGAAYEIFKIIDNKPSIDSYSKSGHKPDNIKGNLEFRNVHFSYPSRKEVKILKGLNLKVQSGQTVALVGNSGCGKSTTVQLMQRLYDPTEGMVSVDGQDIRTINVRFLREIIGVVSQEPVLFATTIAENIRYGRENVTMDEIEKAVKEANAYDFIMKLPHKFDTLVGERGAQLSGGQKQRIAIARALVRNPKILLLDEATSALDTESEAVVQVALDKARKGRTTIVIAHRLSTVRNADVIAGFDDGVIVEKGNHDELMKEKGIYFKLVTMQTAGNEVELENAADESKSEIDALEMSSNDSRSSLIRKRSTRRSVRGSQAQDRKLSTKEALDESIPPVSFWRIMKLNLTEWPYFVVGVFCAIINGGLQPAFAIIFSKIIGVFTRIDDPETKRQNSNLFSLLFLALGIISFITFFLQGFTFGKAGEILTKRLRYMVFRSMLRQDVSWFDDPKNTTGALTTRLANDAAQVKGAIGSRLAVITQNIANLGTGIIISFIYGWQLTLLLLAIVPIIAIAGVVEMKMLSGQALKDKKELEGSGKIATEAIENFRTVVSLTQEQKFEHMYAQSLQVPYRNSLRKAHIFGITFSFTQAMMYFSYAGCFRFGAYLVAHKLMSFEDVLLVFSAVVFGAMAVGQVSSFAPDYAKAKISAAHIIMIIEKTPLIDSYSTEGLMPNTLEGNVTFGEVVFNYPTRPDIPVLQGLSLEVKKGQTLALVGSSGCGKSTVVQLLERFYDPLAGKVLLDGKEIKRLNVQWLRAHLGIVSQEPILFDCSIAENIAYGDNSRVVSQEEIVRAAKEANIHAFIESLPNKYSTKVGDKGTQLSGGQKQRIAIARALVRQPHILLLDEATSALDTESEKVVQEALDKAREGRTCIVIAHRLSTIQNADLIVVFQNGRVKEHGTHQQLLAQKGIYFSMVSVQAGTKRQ
# assay method text: Inhibition of MDR1-mediated efflux-pump activity in mouse L5178Y cells expressing human MDR1 assessed as forward scattered light at 20 uM preincubated for 10 mins followed by rhodamine-123 addition measured after 20 mins by flow cytometry (reference value: 455.7 to 509.9)
# Format: cell-based
Kind request: treat 500 as inclusive, so Activity at 500 or higher is True, anything lower is False.

>>> class_assignment("CO[C@H]1C=C2[C@@H](CC[C@H](O)C2(C)C)[C@]2(C)C[C@@H](O)[C@]3(C)[C@@H]([C@H](C)C[C@@H](O)C=C(C)C)CC[C@@]3(C)[C@H]12")
"True"
>>> class_assignment("CO[C@H]1C=C2[C@@H](CC[C@H](O)[C@]2(C)CO)[C@]2(C)CC[C@]3(C)[C@@H]([C@H](C)C[C@@H](O)C=C(C)C)CC[C@@]3(C)[C@H]12")
"False"
>>> class_assignment("CO[C@H]1C=C2[C@@H](CC[C@H](O)C2(C)C)[C@]2(C)CC[C@]3(C)[C@@H]([C@H](C)C[C@H](C=C(C)C)OC(=O)CCC(=O)O)CC[C@@]3(C)[C@H]12")
"True"
>>> class_assignment("CO[C@H]1C=C2[C@@H](CC[C@H](OC(=O)CCC(=O)O)C2(C)C)[C@]2(C)CC[C@]3(C)[C@@H]([C@H](C)C[C@H](C=C(C)C)OC(=O)CCC(=O)O)CC[C@@]3(C)[C@H]12")
"True"
>>> class_assignment("C[C@H](C/C=C/C(C)(C)O)[C@H]1CC[C@@]2(C)[C@@H]3[C@@H](O)C=C4[C@@H](CC[C@H](O)C4(C)C)[C@]3(C)CC[C@]12C")
"False"
>>> class_assignment("CO[C@H]1C=C2[C@@H](CC[C@H](OC(=O)c3ccccc3)C2(C)C)[C@]2(C)CC[C@]3(C)[C@@H]([C@H](C)C[C@H](C=C(C)C)OC(=O)c4ccccc4)CC[C@@]3(C)[C@H]12 [KARAVOATE H]")
"True"
>>> class_assignment("CC(C)=C[C@H](O)C[C@@H](C)[C@H]1CC[C@@]2(C)[C@@H]3[C@@H](O[C@H]4O[C@@H](CO)[C@H](O)[C@H](O)[C@@H]4O)C=C4[C@@H](CC[C@H](O)C4(C)C)[C@]3(C)CC[C@]12C")
"False"
>>> class_assignment("CO[C@H]1C=C2[C@@H](CC[C@H](OC(=O)c3ccccc3)C2(C)C)[C@]2(C)CC[C@]3(C)[C@@H]([C@H](C)C/C=C/C(C)(C)O)CC[C@@]3(C)[C@H]12")
"False"

* * *

# test system: ATP-dependent translocase ABCB1 (Homo sapiens)
# assay method text: Inhibition of MDR1-mediated efflux-pump activity in mouse L5178Y cells expressing human MDR1 assessed as fluorescence activity ratio at 20 uM preincubated for 10 mins followed by rhodamine-123 addition measured after 20 mins by flow cytometry
# Assay type: cell-based
property: Ratio

>>> test_value("CO[C@H]1C=C2[C@@H](CC[C@H](OC(=O)c3ccc([N+](=O)[O-])cc3)C2(C)C)[C@]2(C)CC[C@]3(C)[C@@H]([C@H](C)C[C@H](C=C(C)C)OC(=O)c4ccc([N+](=O)[O-])cc4)CC[C@@]3(C)[C@H]12 [KARAVOATE J]")
2.1
>>> test_value("CO[C@H]1C=C2[C@@H](CC[C@H](OC(=O)/C=C/c3ccccc3)C2(C)C)[C@]2(C)CC[C@]3(C)[C@@H]([C@H](C)C[C@H](C=C(C)C)OC(=O)/C=C/c4ccccc4)CC[C@@]3(C)[C@H]12 [KARAVOATE P]")
2.7
>>> test_value("CO[C@H]1C=C2[C@@H](CC[C@H](O)[C@]2(C)CO)[C@]2(C)CC[C@]3(C)[C@@H]([C@H](C)C[C@@H](O)C=C(C)C)CC[C@@]3(C)[C@H]12")
68.7
>>> test_value("CC(C)=C[C@H](O)C[C@@H](C)[C@H]1CC[C@@]2(C)[C@@H]3[C@@H](O[C@H]4O[C@@H](CO)[C@H](O)[C@H](O)[C@@H]4O)C=C4[C@@H](CC[C@H](O)C4(C)C)[C@]3(C)CC[C@]12C")
37.2
>>> test_value("CCCC(=O)O[C@H]1CC[C@@H]2C(=C[C@H](OC)[C@@H]3[C@@]2(C)CC[C@]2(C)[C@@H]([C@H](C)C[C@H](C=C(C)C)OC(=O)CCC)CC[C@@]32C)C1(C)C [KARAVOATE F]")
1.6
>>> test_value("CO[C@H]1C=C2[C@@H](CC[C@H](OC(=O)c3ccc(Cl)cc3)C2(C)C)[C@]2(C)CC[C@]3(C)[C@@H]([C@H](C)C[C@H](C=C(C)C)OC(=O)c4ccc(Cl)cc4)CC[C@@]3(C)[C@H]12 [KARAVOATE L]")
1.2
>>> test_value("CO[C@H]1C=C2[C@@H](CC[C@H](O)C2(C)C)[C@]2(C)CC[C@]3(C)[C@@H]([C@H](C)C[C@H](C=C(C)C)OC(=O)CCC(=O)O)CC[C@@]3(C)[C@H]12")
4.2
>>> test_value("CO[C@H]1C=C2[C@@H](CC[C@H](O)C2(C)C)[C@]2(C)CC[C@]3(C)[C@@H]([C@H](C)C[C@H](C=C(C)C)OC(=O)c4ccc(Cl)cc4)CC[C@@]3(C)[C@H]12 [KARAVOATE K]")
1.6
>>> test_value("CO[C@H]1C=C2[C@@H](CC[C@H](OC(=O)c3ccccc3)C2(C)C)[C@]2(C)CC[C@]3(C)[C@@H]([C@H](C)C/C=C/C(C)(C)O)CC[C@@]3(C)[C@H]12")
7.8

* * *

# test system: ATP-dependent translocase ABCB1 (Homo sapiens)
# assay method text: Inhibition of MDR1-mediated efflux-pump activity in mouse L5178Y cells expressing human MDR1 assessed as side scattered light at 20 uM preincubated for 10 mins followed by rhodamine-123 addition measured after 20 mins by flow cytometry (reference value: 194.6 to 286.4)
# Assay type: cell-based
property: Activity

>>> test_value("C[C@H](C/C=C/C(C)(C)O)[C@H]1CC[C@@]2(C)[C@@H]3[C@@H](O)C=C4[C@@H](CC[C@H](O)C4(C)C)[C@]3(C)CC[C@]12C")
243.9
>>> test_value("C=C(C)[C@@H](O)[C@H](O)C[C@@H](C)[C@H]1CC[C@@]2(C)[C@@H]3[C@@H](O)C=C4[C@@H](CC[C@H](O)[C@]4(C)CO)[C@]3(C)CC[C@]12C")
252
>>> test_value("CO[C@H]1C=C2[C@@H](CC[C@H](OC(=O)c3ccccc3)C2(C)C)[C@]2(C)CC[C@]3(C)[C@@H]([C@H](C)C[C@H](C=C(C)C)OC(=O)c4ccccc4)CC[C@@]3(C)[C@H]12 [KARAVOATE H]")
215.4
>>> test_value("COc1ccc(C(=O)O[C@H]2CC[C@@H]3C(=C[C@H](OC)[C@@H]4[C@@]3(C)CC[C@]3(C)[C@@H]([C@H](C)C[C@H](C=C(C)C)OC(=O)c5ccc(OC)cc5)CC[C@@]43C)C2(C)C)cc1 [KARAVOATE N]")
186.7
>>> test_value("CC(C)=C[C@H](O)C[C@@H](C)[C@H]1CC[C@@]2(C)[C@@H]3C(=O)C=C4[C@@H](CC[C@H](O)C4(C)C)[C@]3(C)CC[C@]12C")
234.5
>>> test_value("CO[C@H]1C=C2[C@@H](CC[C@H](O)C2(C)C)[C@]2(C)C[C@@H](O)[C@]3(C)[C@@H]([C@H](C)C/C=C/C(C)(C)O)CC[C@@]3(C)[C@H]12")
235.8
>>> test_value("CO[C@H]1C=C2[C@@H](CC[C@H](O)C2(C)C)[C@]2(C)CC[C@]3(C)[C@@H]([C@H](C)C[C@H](C=C(C)C)OC(=O)c4ccc([N+](=O)[O-])cc4)CC[C@@]3(C)[C@H]12 [KARAVOATE I]")
182.9
>>> test_value("CC(C)=CC(=O)C[C@@H](C)[C@H]1CC[C@@]2(C)[C@@H]3C(=O)C=C4[C@@H](CC[C@H](O)[C@]4(C)CO)[C@]3(C)CC[C@]12C")
195.7
>>> test_value("CC(C)=C[C@H](O)C[C@@H](C)[C@H]1CC[C@@]2(C)[C@@H]3[C@@H](O)C=C4[C@@H](CC[C@H](O)[C@]4(C)CO)[C@]3(C)CC[C@]12C")
260
>>> test_value("CO[C@H]1C=C2[C@@H](CC[C@H](O)C2(C)C)[C@]2(C)CC[C@]3(C)[C@@H]([C@H](C)C[C@H](C=C(C)C)OC(=O)/C=C/c4ccccc4)CC[C@@]3(C)[C@H]12 [KARAVOATE O]")
206.9
>>> test_value("CC(=O)C[C@@H](C)[C@H]1CC[C@@]2(C)[C@@H]3C(=O)C=C4[C@@H](CC[C@H](O)[C@]4(C)CO)[C@]3(C)CC[C@]12C")
256.5
